Tested on: mice
Experiment: acute toxicity (LD50) in mice
Type: in vivo, mouse
Conditions: mouse, per os; Table 3
Text: In the Table 3 which follows are listed results of tests pertaining to the effectiveness of various compounds that are disclosed herein. The results are included in the several columns under letters whose significance is as follows: A - lethal dose (LD50) to mice in milligrams per kilogram of body weight of the mouse when administered per os. B - lethal dose (LD50) to mice in milligrams per kilogram of body weight of the mouse when administered intraperitoneally. […]
endpoint_label: A - lethal dose (LD50) to mice, per os

Previously resolved entries follow.
compound	A - lethal dose (LD50) to mice, per os
CCNC(=O)OC1CC2C(C)C3OC(OC)C2C1(C)O3 (stereo not drawn) [compound 1767]	> 1500 milligrams per kilogram of bod
CCNC(=O)OC1CC2C(C)C3OC(OC)C2C1(C)O3 (stereo not drawn) [Compound No. 2026]	518 milligrams per kilogram of bod
COC1OC2OC3(C)C(OC(=O)NC(C)C)CC(C2C)C13 (stereo not drawn) [Compound No. 2065]	156 milligrams per kilogram of bod
COC1OC2OC3(C)C(OC(=O)NC(C)C)CC(C2C)C13 (stereo not drawn) [Compound No. 2057]	> 1470 milligrams per kilogram of bod
CCC(=O)OC1CC2C(C)C3OC(OC)C2C1(C)O3 (stereo not drawn) [compound 2081]	> 1470 milligrams per kilogram of bod

Record A - lethal dose (LD50) to mice, per os per entry; entries follow.
1. COC1OC2OC3(C)C(OC(C)=O)CC(C2C)C13 (stereo not drawn) [Compound No. 2080]
2. C=C1C2OC(OC)C3C1CC(O)C3(C)O2 (stereo not drawn) [Compound No. 2090]

[out]
> 1470 milligrams per kilogram of bod
774 milligrams per kilogram of bod

Would you mind listing A - lethal dose (LD50) to mice, per os for each of the following compounds?
1. COC1OC2OC3(C)C(O)CC(C2C)C13 (stereo not drawn) [Compound No. 1561]
2. C=C1C2OC(OC)C3C1CC(OC(=O)NCC)C3(C)O2 (stereo not drawn) [Compound No. 2076]

[out]
1: > 1500 milligrams per kilogram of bod; 2: 1025 milligrams per kilogram of bod

---

Test: acute toxicity of Example 17 compound, p.o.
Conditions: mouse, in vivo, po
endpoint_label: LD50 (mg/kg)
Numbers only, in mg/kg.

[in] Fill in reported LD50 for this entry: COC1OC2OC3(C)C(OC(=O)Nc4ccccc4)CC(C2C)C13 (stereo not shown)
[out] 1500

---

Experiment: acute toxicity (LD50) in mice
Assay type: in vivo, mouse
Details: mouse, in vivo, po, mouse, per os; Table 5; read-out: A lethal dose (LD50) to mice, per os
Source text: In the Table 3 which follows are listed results of tests pertaining to the effectiveness of various compounds that are disclosed herein. The results are included in the several columns under letters whose significance is as follows: A - lethal dose (LD50) to mice in milligrams per kilogram of body weight of the mouse when administered per os. B - lethal dose (LD50) to mice in milligrams per kilogram of body weight of the mouse when administered intraperitoneally. […]
Provide the recorded LD50 for the entries that follow.

molecule	assay_result
C=C1C2OC(OC)C3C1CC(OC(C)=O)C3(C)O2 (stereo not shown) [Compound No. 2117]	774 mg/kg

Quick batch: LD50 for everything below.
1. C=C1C2OC(OC)C3C1CC(OC(=O)CC)C3(C)O2 (stereo not shown) [Compound No. 2118]
2. COC1OC2OC3(C)C(OC(=O)CC(C)C)CC(C2C)C13 (stereo not shown) [Compound No. 2215]
3. COC1OC2OC3(C)C(O)CC(C2C)C13 (stereo not shown) [Compound No. 1561]
4. COC1OC2OC3(C)C(OC(C)=O)CC(C2C)C13 (stereo not shown) [Compound No. 2080]
5. C=C1C2OC(OC)C3C1CC(OC(=O)CC(C)C)C3(C)O2 (stereo not shown) [Compound No. 2295]
6. CCC(=O)OC1CC2C(C)C3OC(OC)C2C1(C)O3 (stereo not shown) [compound 2081]

[out]
1. 1140 mg/kg
2. > 1470 mg/kg
3. > 1500 mg/kg
4. 1470 mg/kg
5. > 1470 mg/kg
6. > 1470 mg/kg

---

Hi there, I'd appreciate the recorded B - lethal dose (LD50) to mice, intraperitoneally for every entry that follows.
System: mice
Experiment: acute toxicity (LD50) in mice
Assay type: in vivo, mouse
Conditions: mouse, intraperitoneal; Table 3

Worked examples follow.
compound	assay_system	assay_result
CCC(=O)OC1CC2C(C)C3OC(OC)C2C1(C)O3 (stereo not shown) [compound 2044]	mice	436 milligrams per kilogram of bod
COC1OC2OC3(C)C(OC(=O)NC(C)C)CC(C2C)C13 (stereo not shown) [Compound No. 2057]	mice	1000 milligrams per kilogram of bod
CCNC(=O)OC1CC2C(C)C3OC(OC)C2C1(C)O3 (stereo not shown) [Compound No. 2026]	mice	297 milligrams per kilogram of bod

Fill in B - lethal dose (LD50) to mice, intraperitoneally for each of the 5 compounds listed.
1. CCC(=O)OC1CC2C(C)C3OC(OC)C2C1(C)O3 (stereo not shown) [compound 2081]
2. COC1OC2OC3(C)C(OC(C)=O)CC(C2C)C13 (stereo not shown)
3. C=C1C2OC(OC)C3C1CC(OC(=O)NCC)C3(C)O2 (stereo not shown)
4. COC1OC2OC3(C)C(O)CC(C2C)C13 (stereo not shown)
5. C=C1C2OC(OC)C3C1CC(O)C3(C)O2 (stereo not shown)

[out]
1: 1379 milligrams per kilogram of bod; 2: > 1000 milligrams per kilogram of bod; 3: 527 milligrams per kilogram of bod; 4: 1600 milligrams per kilogram of bod; 5: 300 milligrams per kilogram of bod

# return B - lethal dose (LD50) to mice, intraperitoneally for each item in the list
1. COC1OC2OC3(C)C(OC(=O)NC(C)C)CC(C2C)C13 (stereo not shown) [Compound No. 2065]
2. CCNC(=O)OC1CC2C(C)C3OC(OC)C2C1(C)O3 (stereo not shown) [compound 1767]

[out]
["118 milligrams per kilogram of bod", "890 milligrams per kilogram of bod"]

---

Assay: acute toxicity (LD50) in mice
Format: in vivo, mouse
Conditions: mouse, in vivo, ip, mouse, intraperitoneal; Table 3; read-out: B - lethal dose (LD50) to mice, intraperitoneally
Description: In the Table 3 which follows are listed results of tests pertaining to the effectiveness of various compounds that are disclosed herein. The results are included in the several columns under letters whose significance is as follows: A - lethal dose (LD50) to mice in milligrams per kilogram of body weight of the mouse when administered per os. B - lethal dose (LD50) to mice in milligrams per kilogram of body weight of the mouse when administered intraperitoneally. […]
endpoint_label: LD50 (mg/kg)
One number for each entry, in mg/kg.

Consider the worked cases shown below.
molecule	LD50 [mg/kg]
CCNC(=O)OC1CC2C(C)C3OC(OCC)C2C1(C)O3 (stereo not drawn)	527
C=C1C2OC(OC)C3C1CC(O)C3(C)O2 (stereo not drawn)	600
C=C1C2OC(OCC)C3C1CC(OC(=O)NCC)C3(C)O2 (stereo not drawn)	802
COC1OC2OC3(C)C(OC(C)=O)CC(C2C)C13 (stereo not drawn)	1000
C=C1C2OC(OC)C3C1CC(OC(=O)NCC)C3(C)O2 (stereo not drawn)	390

Then there is this molecule:
[in] Give me measured LD50, please, for this molecule: COC1OC2OC3(C)C(O)CC(C2C)C13 (stereo not drawn)
[out] 1200

---

Assay: acute toxicity in cats, intravenous
Details: cat, in vivo, read-out: lethal dose (LD50) for cats
endpoint_label: LD50 (mg/kg)
Give bare numbers, in mg/kg.

[in] Return value of LD50 for input C=C1C2OC(OC)C3C1CC(OC(=O)NCC)C3(C)O2 (stereo not shown) , no commentary.
[out] 226

---

Please go through the items and note down their ED50.
Tested on: mice
Experiment: narcosis (lateral position) in mice
Type: in vivo, mouse
Conditions: ip, 0.05 h, read-out: D - narcosis (lateral position): dose (ED50) which produces narcosis for 3 minutes in 50% of the mice; mouse, intraperitoneal, narcosis for 3 minutes; Table 3
One number for each entry, in mg/kg.

compound	units	ED50
COC1OC2OC3(C)C(OC(=O)NC(C)C)CC(C2C)C13 (centres unmarked) [Compound No. 2065]	mg/kg	46.4
CCNC(=O)OC1CC2C(C)C3OC(OC)C2C1(C)O3 (centres unmarked) [Compound No. 2026]	mg/kg	100

As a next step, examine the compound that follows.
[in] Fill in ED50 for CCNC(=O)OC1CC2C(C)C3OC(OCC)C2C1(C)O3 (centres unmarked) [compound 2157] tested with mice.
[out] 100

---

Exercise: for every item that follows, state its recorded LD50.
Assay: acute toxicity (LD50) in mice
Format: in vivo, mouse
Conditions: in vivo, ip; mouse, intraperitoneal; Table 4; read-out: B. lethal dose (LD50) to mice, intraperitoneally
Please format your answer as a value with the unit trailing.

molecule	LD50
C=CCNC(=O)OC1CC2C(=C)C3OC(OC)C2C1(C)O3 (stereo not shown) [Compound No. 2286]	444 mg/kg

# per-item lookup of LD50; items listed below
1. CCCNC(=O)OC1CC2C(C)C3OC(OC)C2C1(C)O3 (stereo not shown) [compound 2364]
2. COC1OC2OC3(C)C(OC(=O)NC4CCCCC4)CC(C2C)C13 (stereo not shown) [Compound No. 2365]
3. C=CCNC(=O)OC1CC2C(=C)C3OC(OCC)C2C1(C)O3 (stereo not shown) [compound 2658]
4. C=C1C2OC(OC)C3C1CC(OC(=O)NC)C3(C)O2 (stereo not shown) [compound 2504]
5. COC1OC2OC3(C)C(OC(=O)NC(C)(C)C)CC(C2C)C13 (stereo not shown) [compound 2328]

[out]
["244 mg/kg", "832 mg/kg", "331 mg/kg", "492 mg/kg", "1130 mg/kg"]

Data provenance: patent US4016176A
